Test: Maximal tolerated dose (MTD) / tolerability in BALB/c nude mice
Format: in vivo
Settings: female, BALB/c nude, mouse, in vivo, po
Test Readout: MTD

// returns reported MTD for input C[C@H]1COCCN1c1nc(-c2cnc(N)cc2C(F)F)nc(N2CCOCC2)n1 [Compound 8]
25 mg/kg
